Reported fraction ligated is given for each of the following variants.
B1: F1*; the commonest letter at each place (parent)
chain: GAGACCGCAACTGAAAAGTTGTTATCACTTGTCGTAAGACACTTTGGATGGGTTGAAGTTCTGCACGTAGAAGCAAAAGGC

Variants of: B1
assay-protocol: fraction ligated after 30 min (ligated reads / total reads); higher = more ligase activity
condition-parameters: with F1*sub RNA substrate (template-directed ligation), 42 °C
The reply should be a number, written without any unit.

Given the variant T25C G38A , what is its reported fraction ligated?
0.803

Continuing:
Given the variant T30A G31C , what is its reported fraction ligated?
0.784

Given the variant G38T A41C , what is its reported fraction ligated?
0.785

Given the variant T29G G47A , what is its reported fraction ligated?
0.816

Given the variant T23C G47A , what is its reported fraction ligated?
0.806

Given the variant T25C C28T , what is its reported fraction ligated?
0.803

Given the variant T30C A41T , what is its reported fraction ligated?
0.805

Given the variant G31C G38T , what is its reported fraction ligated?
0.819

Given the variant T30G A48T , what is its reported fraction ligated?
0.796
